src = patent US20190382481A1

molecular target: T1, Human CD33 full length (human, UniProt P20138 18-364); assay: flow cytometry on HEK293F cells expressing human CD33
T1 construct: Stably expressed on HEK293F cells by lentiviral transduction; also called Human CD33 (on HEK293F cells)
T1 sequence (P20138 18-364 limits assumed): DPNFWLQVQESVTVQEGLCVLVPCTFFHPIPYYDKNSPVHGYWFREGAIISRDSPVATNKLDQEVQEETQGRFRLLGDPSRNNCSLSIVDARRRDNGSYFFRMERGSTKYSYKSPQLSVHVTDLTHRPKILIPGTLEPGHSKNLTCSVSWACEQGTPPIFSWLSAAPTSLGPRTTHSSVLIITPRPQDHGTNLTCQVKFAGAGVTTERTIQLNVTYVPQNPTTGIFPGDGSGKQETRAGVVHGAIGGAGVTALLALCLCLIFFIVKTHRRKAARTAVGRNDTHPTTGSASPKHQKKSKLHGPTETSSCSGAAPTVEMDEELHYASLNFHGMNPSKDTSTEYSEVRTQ
READOUT: mean fluorescence intensity at 6 nM mAb
Report the figure along with its unit, number first.

INSERT INTO assay_data (binder, experimental_result) VALUES
  ('C33B909 (antibody, V domains shown, OMNIMouse mAb; HC C33H249, LC C33L115 (same IDs as C33B901); the campaign was cloned into both IgG1 and IgG4 PAA) VH: EVQLVESGGGLVQPGRSLRLSCVASGFTFDDYAIHWVRQAPGKGLEWVSGLSWNGGNIGYADSVKGRFTISRDNAKNSLYLQMNSLKTEDTAFYYCTKDTPYGDYFDYWGQGTLVTVSS VL: DIQMTQSPSSVWASVGDRVTITCRASQGISSWLAWYQQQPGKAPNLLIYRSSSLQSGVPSRFSGSGSGTDFTLTISSLQPEDFATYYCQQDNSFPYTFGQGTKLEIKR', '170 MFI'),
  ('C33B914 (antibody, V domains shown, OMNIMouse mAb; HC C33H254, LC C33L120 (same IDs as C33B906); also called C33F552) VH: QVQLVESGGGVVQPGRSLRLSCAASGFTFSYYGMHWVRQAPDKGLEWVAVIWFDGNNKYYADSVKGRFTISRDNSKNTLYLQMNSLRAEDTAVYYCARDRELLFDYWGQGTLVTVSS VL: SYELTQPPSVSVSPGQTASITCSGDELGDMYACWYQQKPGQSPLVVIYQDSKRPSGIPERFSGSNSGNTATLTISGTQAMDEAAYYCQTWDTRIAVFGGGTNLTVLG', '315000 MFI'),
  ('C33B915 (antibody, V domains shown, OMNIMouse mAb; HC C33H255, LC C33L121 (same IDs as C33B907); also called C33F553) VH: EVQLVESGGGLVQPGRSLRLSCAASGFTFDDYAMHWVRQVPGEGLEWVSGISWNGGDMVYADSVKGRFTISRDNAKNSLYLQMNSLRPEDTALYYCVKDMPYFDFLTGSDYYYYGMDVWGQGTTVTVSS VL: SYELTQPPSVSVSPGQTASITCSGDNLGNEHVCWYHQKPGQSPVLVIYQNNKRPSGIPERFSGSNSGNTATLSISGTQATDEADYYCQAWDSTTAVFGGGTKLTVLG', '363000 MFI');

### Prompt Answer with the recorded mean fluorescence intensity at 6 nM mAb for the binder listed here: C33B910 (antibody, V domains shown, OMNIMouse mAb; HC C33H250, LC C33L116 (same IDs as C33B902)) VH: EVQLVESGGGLVQPGRSLRLSCAGSGFTFDDYAIHWVRQAPGKGLEWVSGLSWNGGNIGYADSVKGRFTISRDNAKNSLYLQLNSLKTEDTAFYYCAKDSPYGDYFDYWGQGTLVTVSS VL: DIQMTQSPSSEWASVGDRVTITCRASQGISSWLAWYQQKPGKAPKLLIYGASSWQSGVPSRFSGSGSGTDFTLTISSLQPEDFATYYCQQDNSFPYTFGQGTKLEIKR
### Response 183 MFI
